- EXPERIMENTAL SYSTEM: rat GnRH receptor (Rattus norvegicus)
- Sequence (P30969 whole entry): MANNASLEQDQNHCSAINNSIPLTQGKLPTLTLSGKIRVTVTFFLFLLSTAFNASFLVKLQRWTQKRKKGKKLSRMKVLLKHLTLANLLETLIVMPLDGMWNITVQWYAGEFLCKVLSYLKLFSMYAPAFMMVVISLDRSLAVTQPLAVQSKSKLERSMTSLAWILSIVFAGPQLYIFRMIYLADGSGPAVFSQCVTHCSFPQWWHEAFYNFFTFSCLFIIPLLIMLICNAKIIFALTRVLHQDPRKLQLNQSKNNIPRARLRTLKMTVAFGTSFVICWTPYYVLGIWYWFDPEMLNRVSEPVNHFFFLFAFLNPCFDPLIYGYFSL
- PROCEDURE SUMMARY: Microphysiometry, extracellular acidification rate, GGH3 cells
- Assay type: cell-based
- CONDITION: rat; readout (PI or pH) not stated
Listing of recorded Kb by entry.
Your answer is read as nM, so omit the unit and give the number.

| MOLECULE | UNITS LABEL | Kb |
| --- | --- | --- |
| Cc1cc2c(cc1Cc1ccc(C(=O)NCc3cccc(CNc4nccc(NCC5CCCO5)n4)c3)o1)C(C)(C)CCC2(C)C (stereo not drawn) | nM | 8 |
| COc1cc(OC)c(NC(=O)c2ccc(Cc3cc4c(cc3C)C(C)(C)CCC4(C)C)o2)c(OC)c1C#N | nM | 9 |
| COc1cc(OC)c(NC(=O)c2ccc(Cc3cc4c(cc3C)CCCC4(C)C)o2)c(OC)c1 | nM | 11 |
| COc1cccc(OC)c1NC(=O)c1ccc(Cc2cc3c(cc2C)C(C)(C)CCC3(C)C)o1 | nM | 9 |
| COc1cc(OC)c(NC(=O)c2ccc(Cc3cc4c(cc3OC)C(C)(C)CCC4(C)C)o2)c(OC)c1 | nM | 17 |

# ---- query molecule ----
Query :: Please give the measured Kb for this molecule: COc1cc(OC)c(NC(=O)c2ccc(Cc3cc(C(C)(C)C)ccc3C)o2)c(OC)c1
Result :: 0.9
